Target: Hepatocyte growth factor receptor (Homo sapiens)
Sequence (P08581 whole entry, the tested form may be a part): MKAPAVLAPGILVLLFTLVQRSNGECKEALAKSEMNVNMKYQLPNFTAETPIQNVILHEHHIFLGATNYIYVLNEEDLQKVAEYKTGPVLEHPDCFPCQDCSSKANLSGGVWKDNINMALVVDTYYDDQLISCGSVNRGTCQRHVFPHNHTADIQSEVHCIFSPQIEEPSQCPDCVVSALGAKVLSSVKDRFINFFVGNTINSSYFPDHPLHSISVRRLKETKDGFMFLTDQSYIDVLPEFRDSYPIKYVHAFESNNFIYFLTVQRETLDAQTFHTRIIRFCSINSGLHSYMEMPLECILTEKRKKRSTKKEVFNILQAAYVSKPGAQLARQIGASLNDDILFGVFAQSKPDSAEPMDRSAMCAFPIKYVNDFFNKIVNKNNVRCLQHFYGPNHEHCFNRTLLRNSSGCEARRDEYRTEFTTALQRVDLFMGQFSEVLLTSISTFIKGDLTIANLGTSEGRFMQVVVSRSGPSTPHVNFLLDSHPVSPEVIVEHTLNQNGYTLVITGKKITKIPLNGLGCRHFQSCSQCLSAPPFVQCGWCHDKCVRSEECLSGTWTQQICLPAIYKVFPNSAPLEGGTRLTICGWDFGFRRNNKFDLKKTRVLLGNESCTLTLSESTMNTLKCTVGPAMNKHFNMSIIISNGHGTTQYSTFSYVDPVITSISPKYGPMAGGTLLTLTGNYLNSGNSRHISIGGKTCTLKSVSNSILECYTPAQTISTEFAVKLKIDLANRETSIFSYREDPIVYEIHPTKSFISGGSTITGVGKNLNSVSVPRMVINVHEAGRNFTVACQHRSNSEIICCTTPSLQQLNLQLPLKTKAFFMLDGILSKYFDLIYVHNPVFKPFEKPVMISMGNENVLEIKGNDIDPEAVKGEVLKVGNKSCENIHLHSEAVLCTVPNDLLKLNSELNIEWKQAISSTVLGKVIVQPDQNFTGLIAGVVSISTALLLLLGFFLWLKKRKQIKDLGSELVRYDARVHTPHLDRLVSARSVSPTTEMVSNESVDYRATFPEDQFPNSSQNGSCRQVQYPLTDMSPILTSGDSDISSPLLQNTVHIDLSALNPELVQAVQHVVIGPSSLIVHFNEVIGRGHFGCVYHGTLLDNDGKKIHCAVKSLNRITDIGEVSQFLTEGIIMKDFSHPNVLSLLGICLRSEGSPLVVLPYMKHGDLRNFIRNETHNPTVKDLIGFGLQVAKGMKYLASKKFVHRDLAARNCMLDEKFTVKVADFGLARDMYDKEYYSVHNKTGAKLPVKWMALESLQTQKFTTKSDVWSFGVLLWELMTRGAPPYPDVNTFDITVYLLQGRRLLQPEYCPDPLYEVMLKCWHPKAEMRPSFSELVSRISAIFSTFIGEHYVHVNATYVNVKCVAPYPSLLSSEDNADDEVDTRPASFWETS
Experiment: Inhibition of recombinant human N-terminal GST-tagged MET cytoplasmic domain (956 to 1390 residues) expressed in baculovirus expression system
Measurement type: IC50

[Q] Any idea what its IC50 is? The molecule is COc1cc2ncccc2cc1NC(=O)c1csc2cncnc12
[A] > 50 µM

====

Target: Mitogen-activated protein kinase 14 (Homo sapiens, UniProt Q16539)
Sequence (Q16539 whole entry, the tested form may be a part): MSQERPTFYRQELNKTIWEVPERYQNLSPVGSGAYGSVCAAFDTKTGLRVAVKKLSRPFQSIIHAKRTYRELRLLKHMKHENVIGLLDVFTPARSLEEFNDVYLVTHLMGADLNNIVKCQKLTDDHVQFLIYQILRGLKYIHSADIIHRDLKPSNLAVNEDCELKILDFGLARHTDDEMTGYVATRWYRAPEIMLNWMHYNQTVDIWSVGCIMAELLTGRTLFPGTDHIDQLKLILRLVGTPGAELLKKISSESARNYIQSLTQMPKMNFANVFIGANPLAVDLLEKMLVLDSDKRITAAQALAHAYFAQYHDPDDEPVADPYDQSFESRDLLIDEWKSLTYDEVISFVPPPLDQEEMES
Assay: Inhibition of recombinant human N-terminal GST-tagged p38-alpha (9 to 352 residues) expressed in Escherichia coli expression system
pIC50: −log10 of the molar value.
Measurement type: pIC50

[Q] API: value(readout=pIC50, system=Mitogen-activated protein kinase 14 (Homo sapiens, UniProt Q16539)) for record COc1cc2ncccc2cc1NC(=O)c1csc2cncnc12
[A] < 4.30

The measured values listed here are drawn from ChEMBL document CHEMBL4002626.
